System: MCF10A
procedure summary: percent viability (nuclei count relative to siNT); higher = more viable cells
experimental setup: 20 nM; 72 h
Catalogue of sequences with associated percent viability
Report only the number, with the unit % understood.

Worked set:
residue codes | measured endpoint | units | assay value
AAAAGUUAUUGCGGUUUUGGCU [hsa-miR-548at-5p] | percent viability | % | 54.1
CCCGGCCGGAACGCCGCACU [hsa-miR-6850-3p] | percent viability | % | 65.7
UGGAAGACUAGUGAUUUUGUUGU [hsa-miR-7-5p] | percent viability | % | 51.8
UUCUGCCUCUGUCCAGGUCCUU [hsa-miR-5001-3p] | percent viability | % | 39.1
UUGCAGCUGCCUGGGAGUGACUUC [hsa-miR-1301] | percent viability | % | 49
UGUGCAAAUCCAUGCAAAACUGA [hsa-miR-19b-3p] | percent viability | % | 82.4

The reported value for AUUUGUGCUUGGCUCUGUCAC [hsa-miR-2113] in terms of percent viability is 98.6

The reported value for AAAAGGCAUUGUGGUUUUUG [hsa-miR-548an] in terms of percent viability is 11.6

The reported value for CAGCAGGGGAGAGAGAGGAGUC [hsa-miR-6510-5p] in terms of percent viability is 27.9

The reported value for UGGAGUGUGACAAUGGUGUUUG [hsa-miR-122-5p] in terms of percent viability is 52.7

The reported value for UCGUAUCAGAGAUUCCAGACAC [hsa-miR-6506-3p] in terms of percent viability is 85.1
